System: TMD8
Test: NHL cell line viability/apoptosis 384-well flow cytometry assay
Assay type: cell-based
Details: Homo sapiens; TMD8 (DLBCL), 120 hours
quantity: pEC50
Expect pEC50 as a plain number equal to -log10 of the molar concentration.

Give TMD8 pEC50 for the following compound: O=C1CC[C@H](N2C(=O)c3cccc(NCc4ccc(CN5CC(N6CCOCC6)C5)cc4F)c3C2=O)C(=O)N1
8.21

* * *

Tested on: U-2973
Assay: NHL cell line viability/apoptosis 384-well flow cytometry assay
Type: cell-based
Conditions: Homo sapiens; U-2973, 120 hours; read-out: IC50 (% Viable Cells)
quantity: pIC50
Expect pIC50 as a plain number equal to -log10 of the molar concentration.

State its pIC50: O=C1CC[C@H](N2C(=O)c3cccc(NCc4ccc(CN5CC(N6CCOCC6)C5)cc4F)c3C2=O)C(=O)N1
5.17

* * *

Tested on: WSU-DLCL2
Assay: NHL cell line viability/apoptosis 384-well flow cytometry assay
Format: cell-based
Conditions: Homo sapiens, WSUDLCL2; WSU-DLCL2 (DLBCL), 120 hours; read-out: IC50 (% Viable Cells)
quantity: IC50
Phrase the answer as number then unit, nothing more needed.

State its IC50: O=C1CC[C@H](N2C(=O)c3cccc(NCc4ccc(CN5CC(N6CCOCC6)C5)cc4F)c3C2=O)C(=O)N1
16.9 nM

* * *

System: SU-DHL-2
Test: NHL cell line viability/apoptosis 384-well flow cytometry assay
Assay type: cell-based
Conditions: Homo sapiens; SU-DHL-2 (DLBCL), 120 hours; read-out: IC50 (% Viable Cells)
quantity: IC50 (nM)
// note: answer is a bare numeric in nM

Give SU-DHL-2 IC50 for the following molecule: O=C1CC[C@H](N2C(=O)c3cccc(NCc4ccc(CN5CC(N6CCOCC6)C5)cc4F)c3C2=O)C(=O)N1 [Compound 1]
1.26

* * *

System: CARNAVAL
Assay: NHL cell line viability/apoptosis 384-well flow cytometry assay
Type: cell-based
Conditions: CARNAVAL (DLBCL), 120 hours
quantity: pEC50
Expect pEC50 as a plain number equal to -log10 of the molar concentration.

State its pEC50: O=C1CC[C@H](N2C(=O)c3cccc(NCc4ccc(CN5CC(N6CCOCC6)C5)cc4F)c3C2=O)C(=O)N1 [Compound 1]
6.82

* * *

Test system: SUDHL4 DoxoR
Assay: Viability/apoptosis flow cytometry assay, DLBCL cell lines with acquired resistance to doxorubicin and parental lines
Assay type: cell-based
Conditions: Homo sapiens, SU-DHL-4, 120 hours
Method: The following exemplary anti-proliferative assay uses exemplary DLBCL cell lines with acquired resistance to doxorubicin (Table 7). The in vitro growth inhibitory activity of Compound described herein was evaluated using a 384-well flow cytometry assay. […] The cell lines in Table 7 were plated in 96-well flat bottom plates and assessed with increasing concentrations of compound ranging from 0.0015 to 10 μM or dimethyl sulfoxide (DMSO) control. […]
quantity: pEC50
Expect pEC50 as a plain number equal to -log10 of the molar concentration.

State its pEC50: O=C1CC[C@H](N2C(=O)c3cccc(NCc4ccc(CN5CC(N6CCOCC6)C5)cc4F)c3C2=O)C(=O)N1
6.40

* * *

System: Oci-Ly10 DoxoR
Assay: Viability/apoptosis flow cytometry assay, DLBCL cell lines with acquired resistance to doxorubicin and parental lines
Type: cell-based
Settings: Homo sapiens, 120 hours, read-out: IC50 (% Viable Cells)
quantity: IC50 (nM)
// note: answer is a bare numeric in nM

Give Oci-Ly10 DoxoR IC50 for the following compound: O=C1CC[C@H](N2C(=O)c3cccc(NCc4ccc(CN5CC(N6CCOCC6)C5)cc4F)c3C2=O)C(=O)N1
90

* * *

System: U-2932
Assay: NHL cell line viability/apoptosis 384-well flow cytometry assay
Type: cell-based
Settings: Homo sapiens, U2932; U-2932 (DLBCL), 120 hours
quantity: EC50 (nM)
// note: answer is a bare numeric in nM

State its EC50: O=C1CC[C@H](N2C(=O)c3cccc(NCc4ccc(CN5CC(N6CCOCC6)C5)cc4F)c3C2=O)C(=O)N1
567

* * *

System: RC-K8
Experiment: NHL cell line viability/apoptosis 384-well flow cytometry assay
Format: cell-based
Conditions: Homo sapiens, RCK8; RC-K8 (DLBCL), 120 hours
quantity: EC50 (µM)
// note: answer is a bare numeric in µM

State its EC50: O=C1CC[C@H](N2C(=O)c3cccc(NCc4ccc(CN5CC(N6CCOCC6)C5)cc4F)c3C2=O)C(=O)N1
0.0743

* * *

System: SU-DHL-8
Test: NHL cell line viability/apoptosis 384-well flow cytometry assay
Assay type: cell-based
Conditions: Homo sapiens; SU-DHL-8 (DLBCL), 120 hours; read-out: IC50 (% Viable Cells)
Protocol: The following exemplary anti-proliferative assay uses exemplary non-Hodgkin lymphoma (NIL) cell lines (including diffuse large B-cell lymphoma (DLBCL), follicular lymphoma (FL), and mantle cell lymphoma (MCL)) (Table 5). The in vitro growth inhibitory activity of Compound 1 described herein was evaluated using a 384-well flow cytometry assay. […]
quantity: pIC50
Expect pIC50 as a plain number equal to -log10 of the molar concentration.

State its pIC50: O=C1CC[C@H](N2C(=O)c3cccc(NCc4ccc(CN5CC(N6CCOCC6)C5)cc4F)c3C2=O)C(=O)N1 [Compound 1]
6.31

* * *

Test system: HT
Test: NHL cell line viability/apoptosis 384-well flow cytometry assay
Type: cell-based
Details: Homo sapiens; HT (DLBCL), 120 hours
Experimental: The following exemplary anti-proliferative assay uses exemplary non-Hodgkin lymphoma (NIL) cell lines (including diffuse large B-cell lymphoma (DLBCL), follicular lymphoma (FL), and mantle cell lymphoma (MCL)) (Table 5). The in vitro growth inhibitory activity of Compound 1 described herein was evaluated using a 384-well flow cytometry assay. […]
quantity: pEC50
Expect pEC50 as a plain number equal to -log10 of the molar concentration.

State its pEC50: O=C1CC[C@H](N2C(=O)c3cccc(NCc4ccc(CN5CC(N6CCOCC6)C5)cc4F)c3C2=O)C(=O)N1 [Compound 1]
7.18

* * *

Test system: WILL-1
Assay: NHL cell line viability/apoptosis 384-well flow cytometry assay
Type: cell-based
Conditions: WILL-1 (DLBCL), 120 hours
quantity: EC50 (µM)
// note: answer is a bare numeric in µM

State its EC50: O=C1CC[C@H](N2C(=O)c3cccc(NCc4ccc(CN5CC(N6CCOCC6)C5)cc4F)c3C2=O)C(=O)N1 [Compound 1]
2.52

* * *

Tested on: OCI-LY7
Experiment: NHL cell line viability/apoptosis 384-well flow cytometry assay
Type: cell-based
Conditions: Homo sapiens; OCI-LY7 (DLBCL), 120 hours
Description: The following exemplary anti-proliferative assay uses exemplary non-Hodgkin lymphoma (NIL) cell lines (including diffuse large B-cell lymphoma (DLBCL), follicular lymphoma (FL), and mantle cell lymphoma (MCL)) (Table 5). The in vitro growth inhibitory activity of Compound 1 described herein was evaluated using a 384-well flow cytometry assay. […]
quantity: pEC50
Expect pEC50 as a plain number equal to -log10 of the molar concentration.

State its pEC50: O=C1CC[C@H](N2C(=O)c3cccc(NCc4ccc(CN5CC(N6CCOCC6)C5)cc4F)c3C2=O)C(=O)N1
7.79

* * *

Test system: SU-DHL-8
Assay: NHL cell line viability/apoptosis 384-well flow cytometry assay
Format: cell-based
Details: Homo sapiens; SU-DHL-8 (DLBCL), 120 hours
Protocol: The following exemplary anti-proliferative assay uses exemplary non-Hodgkin lymphoma (NIL) cell lines (including diffuse large B-cell lymphoma (DLBCL), follicular lymphoma (FL), and mantle cell lymphoma (MCL)) (Table 5). The in vitro growth inhibitory activity of Compound 1 described herein was evaluated using a 384-well flow cytometry assay. […]
quantity: pEC50
Expect pEC50 as a plain number equal to -log10 of the molar concentration.

State its pEC50: O=C1CC[C@H](N2C(=O)c3cccc(NCc4ccc(CN5CC(N6CCOCC6)C5)cc4F)c3C2=O)C(=O)N1 [Compound 1]
6.22

* * *

Tested on: U-2946
Experiment: NHL cell line viability/apoptosis 384-well flow cytometry assay
Format: cell-based
Details: U-2946 (DLBCL), 120 hours
quantity: EC50
Phrase the answer as number then unit, nothing more needed.

State its EC50: O=C1CC[C@H](N2C(=O)c3cccc(NCc4ccc(CN5CC(N6CCOCC6)C5)cc4F)c3C2=O)C(=O)N1 [Compound 1]
192 nM
